Reported IC50 by item:
# System: HCT116 MTAP-/-
# Measurement description: Inhibition of cellular proliferation (Cell Titer Glo), HCT116 MTAP-/-
# Assay type: cell-based, human
# Run parameters: Homo sapiens, HCT-116, 96 h, Table 5a, 4 days, read-out: 4 Day Relative Growth Inhibition (MTAP −/−)

The following compounds have reported results that may help.
>>> reported("CCOc1ccc2c(n1)N(c1ccc(OC(F)F)cc1)C(=O)N(c1ccc3nnn(C)c3c1)C2 [Example 109]")
"100 to 1000 nM"
>>> reported("COc1ccc(N2C(=O)N(c3ccnc(OC)c3)Cc3cnc(NCC(F)(F)F)nc32)cc1 [Example 228]")
"100 to 1000 nM"
>>> reported("CCOc1ccc2c(n1)N(c1ccc(C(F)F)nc1)C(=O)N(c1ccc3nn(C)cc3c1)C2 [Example 149]")
"< 100 nM"

Prompt line: Look up and report measured IC50 for this entry: CCOc1cnc2c(c1)N(c1ccc(Cl)cc1)C(=O)N(c1ccc3nn(C)cc3c1)C2 [Example 291]
Response line: > 1000 nM

Prompt line: Look up and report measured IC50 for this entry: Cn1cc2cc(N3Cc4ccc(OCC(F)F)nc4N(c4ccc5[nH]nnc5c4)C3=O)ccc2n1 [Example 179]
Response line: > 1000 nM

Prompt line: Look up and report measured IC50 for this entry: [2H]C([2H])([2H])Oc1ccc(N2C(=O)N(c3ccc4nn(CC(F)F)cc4c3)Cc3ccc(OCC(F)F)nc32)cc1 [Example 119]
Response line: 100 to 1000 nM

Prompt line: Look up and report measured IC50 for this entry: CCOc1ccc2c(n1)N(c1ccc(OC(F)F)cc1)C(=O)N(c1ccc3nn(C)nc3c1)C2 [Example 110]
Response line: 100 to 1000 nM

Prompt line: Look up and report measured IC50 for this entry: CCOc1ccc2c(n1)N(c1ccc(OC(F)F)cc1)C(=O)N(c1ccn3nccc3c1)C2 [Example 106]
Response line: 100 to 1000 nM
